The values you see were collected from patent US9073855B2.

Task for the reader: assign each of the following compounds its reported Binding selectivity ratio (Bcl-XL Ki/Bcl-2 Ki).
- targetEntity: GST-Bcl-2 (Homo sapiens, UniProt P10415)
- Sequence (P10415 whole entry): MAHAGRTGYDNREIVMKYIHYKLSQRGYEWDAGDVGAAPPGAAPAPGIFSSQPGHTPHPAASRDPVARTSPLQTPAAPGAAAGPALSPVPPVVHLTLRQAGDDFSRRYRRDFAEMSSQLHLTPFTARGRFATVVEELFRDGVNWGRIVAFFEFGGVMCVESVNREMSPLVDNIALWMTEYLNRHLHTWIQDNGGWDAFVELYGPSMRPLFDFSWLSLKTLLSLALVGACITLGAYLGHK
- protocolNotes: TR-FRET binding assay, GST-Bcl-2 with F-Bak peptide probe
- reportedConditions: TR-FRET; Bcl-XL Ki divided by Bcl-2 Ki
// keep it numeric: no unit symbol after the value

Form: compound = "CN1CCN(Nc2ccc(S(=O)(=O)NC(=O)c3ccc(N4CCN(CC5=C(c6ccc(Cl)cc6)CC(C)(C)CC5)CC4)cc3Oc3cccc4[nH]cnc34)cc2[N+](=O)[O-])CC1" ; Binding selectivity ratio (Bcl-XL Ki/Bcl-2 Ki) = 363.0

The reported Binding selectivity ratio (Bcl-XL Ki/Bcl-2 Ki) of the compound CC1(C)CCC(CN2CCN(c3ccc(C(=O)NS(=O)(=O)c4cnc(OCC5CC5(F)F)c(Cl)c4)c(Oc4cccc5[nH]ncc45)c3)CC2)=C(c2ccc(Cl)cc2)C1 (stereo not drawn) was 4600.5

Data point: "CC1(C)CCC(CN2CCN(c3ccc(C(=O)NS(=O)(=O)c4cnc(OC[C@@H]5CCN(C(CF)CF)C5)c(Cl)c4)c(Oc4cccc5[nH]ncc45)c3)CC2)=C(c2ccc(Cl)cc2)C1" ; Binding selectivity ratio (Bcl-XL Ki/Bcl-2 Ki) = 727.6

Input "CC1(C)CCC(CN2CCN(c3ccc(C(=O)NS(=O)(=O)c4cnc(OC[C@@H]5CCN(CC(F)F)C5)c(Cl)c4)c(Oc4cccc5[nH]ncc45)c3)CC2)=C(c2ccc(Cl)cc2)C1" . Output Binding selectivity ratio (Bcl-XL Ki/Bcl-2 Ki): 484.2

// recorded Binding selectivity ratio (Bcl-XL Ki/Bcl-2 Ki) for CC1(C)CCC(CN2CCN(c3ccc(C(=O)NS(=O)(=O)c4cnc(OCCC5CCCO5)c(Cl)c4)c(Oc4cccc5[nH]ncc45)c3)CC2)=C(c2ccc(Cl)cc2)C1 (stereo not drawn) : 39.4

Binding selectivity ratio (Bcl-XL Ki/Bcl-2 Ki) recorded for this compound, "CC1(C)CCC(CN2CCN(c3ccc(C(=O)NS(=O)(=O)c4cnc(OCC5CCC(F)(F)CC5)c(Cl)c4)c(Oc4cccc5[nH]cnc45)c3)CC2)=C(c2ccc(Cl)cc2)C1" , is 6042.9
